B1: Steroid hormone receptor ERR2, residues 100 to 176; numbered along this chain, O95718 (parent)
chain: KRLCLVCGDIASGYHYGVASCEACKAFFKRTIQGNIEYSCPATNECEITKRRRKSCQACRFMKCLKVGMLKEGVRLD

- Variants of: B1
- procedure.text: abundance fitness (aPCA) (normalised: wild type 0, dead -1); higher = more abundant; growth selection in yeast, the domain comes from the species named
- run.parameters: Homo sapiens
abundance fitness class ranges: lower: < -0.2; middle: ≥ -0.2 and < 0.05; upper: ≥ 0.05

Could you place C59S in its proper category? Many thanks.
lower

Could you place K50V in its proper category? Many thanks.
upper

Could you place N35A in its proper category? Many thanks.
upper

Could you place T49S in its proper category? Many thanks.
middle

Could you place A26D in its proper category? Many thanks.
middle

Could you place R2V in its proper category? Many thanks.
lower

Could you place G34E in its proper category? Many thanks.
upper
